Every entry's value here was drawn from patent US20250154144A1.

Biological target: IRAK4 (Homo sapiens)
Sequence (Q9NWZ3 whole entry): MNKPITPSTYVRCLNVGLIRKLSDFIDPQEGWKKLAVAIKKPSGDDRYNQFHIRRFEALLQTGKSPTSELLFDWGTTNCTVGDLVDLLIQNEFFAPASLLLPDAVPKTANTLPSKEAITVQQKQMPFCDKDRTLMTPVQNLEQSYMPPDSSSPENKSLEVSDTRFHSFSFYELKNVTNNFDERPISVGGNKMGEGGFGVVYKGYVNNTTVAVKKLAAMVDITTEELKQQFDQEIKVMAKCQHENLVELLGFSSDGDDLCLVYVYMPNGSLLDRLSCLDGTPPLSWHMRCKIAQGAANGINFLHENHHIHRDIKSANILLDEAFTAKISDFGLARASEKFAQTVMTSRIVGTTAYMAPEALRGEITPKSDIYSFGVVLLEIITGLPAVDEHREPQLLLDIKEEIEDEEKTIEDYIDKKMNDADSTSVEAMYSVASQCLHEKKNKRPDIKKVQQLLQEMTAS
Assay: RBC HotSpot Kinase Assay, IRAK4
Conditions: IRAK4 IC50
pIC50: −log10 of the molar value.
quantityName: pIC50

Observe how each entry below is paired with its result.
[
  {
    "molecule": "FC(F)COc1ccn2c(-c3ccnc(N[C@H]4CNC[C@@H]4F)n3)cnc2c1",
    "pIC50": 9.15
  },
  {
    "molecule": "FC(F)COc1ccn2c(-c3ccnc(N[C@@H]4CCCNC4)n3)cnc2c1",
    "pIC50": 8.70
  },
  {
    "molecule": "CC(O)(c1cn2c(-c3ccnc(N[C@H]4CNCC[C@@H]4F)n3)cnc2cn1)C(F)(F)F (single isomer, unassigned) [Compound 70]",
    "pIC50": 7.37
  },
  {
    "molecule": "FC(F)Oc1ccn2c(-c3cncc(N[C@H]4CNCC[C@@H]4F)n3)cnc2c1",
    "pIC50": 8.40
  },
  {
    "molecule": "CC(C)Oc1ccn2c(-c3nccc(N[C@@H]4CCCNC4)n3)cnc2c1",
    "pIC50": 7.22
  }
]

1 = COc1cc2ncc(-c3cncc(N[C@H]4CNC[C@@H]4F)n3)n2nc1C1CC1
2 = FC(F)Oc1ccn2c(-c3ccnc(N[C@@H]4CCCNC4)n3)cnc2c1
3 = COc1cc2ncc(-c3cncc(N[C@H]4CNCC[C@@H]4F)n3)n2nc1C(C)(O)C(F)(F)F (single isomer, unassigned) [Compound 80]
4 = CC(C)Oc1ccn2c(-c3ccnc(N[C@H]4CNC[C@@H]4F)n3)cnc2c1
5 = FC(F)Oc1ccn2c(-c3ccnc(N[C@H]4CNC[C@@H]4F)n3)cnc2c1
Q: Thanks in advance: please rank these 5 entries by pIC50, highest to lowest. # format: label list in the order the request specifies
Result: 1, 4, 5, 2, 3

P = COc1cc2ncc(-c3cncc(N[C@H]4CNC[C@@H]4F)n3)n2nc1C(C)(O)C(F)(F)F (single isomer, unassigned) [Compound 83]
Q = CC(O)(c1cn2c(-c3ccnc(N[C@H]4CNC[C@@H]4F)n3)cnc2cn1)C(F)(F)F (single isomer, unassigned) [Compound 69]
R = COc1ccn2c(-c3cncc(N[C@H]4CNC[C@@H]4F)n3)cnc2c1
Q: Ordering: ascending pIC50. // respond by listing labels in the order requested
Result: P, R, Q
(P: 6.26, R: 8.70, Q: 9.00)

====

System: MOLM14(D835Y) cells
Type: cell-based
Conditions: MOLM14(D835Y) cells, 10 × 10; combination with Trametinib
quantityName: Excess HSA Score
Respond with the number and no other words.

Example cases with answers are listed next.
[
  {
    "molecule": "CC(O)(c1cn2c(-c3ccnc(N[C@H]4CNCC[C@@H]4F)n3)cnc2cn1)C(F)(F)F (single isomer, unassigned)",
    "subjectOfTest": "MOLM14(D835Y) cells",
    "assayResult": 218.5
  },
  {
    "molecule": "COc1ccn2c(-c3cncc(N[C@@H]4CCCNC4)n3)cnc2c1",
    "subjectOfTest": "MOLM14(D835Y) cells",
    "assayResult": 213.7
  },
  {
    "molecule": "COc1ccn2c(-c3ccnc(N[C@H]4CNC[C@@H]4F)n3)cnc2c1",
    "subjectOfTest": "MOLM14(D835Y) cells",
    "assayResult": 115.3
  },
  {
    "molecule": "COc1cc2ncc(-c3ccnc(N[C@H]4CNCC[C@@H]4F)n3)n2cc1C(C)(C)O",
    "subjectOfTest": "MOLM14(D835Y) cells",
    "assayResult": "−362.6"
  }
]

Then there is this molecule:
Q: Quick check: Excess HSA Score of `COc1cc2ncc(-c3ccnc(N[C@@H]4CCCNC4)n3)n2nc1C1CC1` ?
Result: −342.3
